- PROCEDURE TEXT: Solubility (Test F)
- Format: physicochemical
- CONDITION DESCRIPTION: arithmetic mean if run multiple times
READOUT NAME: solubility

COc1cc(C#N)c(O[C@H]2CC[C@@](C)(C(=O)O)CC2)cc1C(=O)N[C@@H]1[C@H]2CC[C@H](C2)[C@@H]1C(=O)NCC1(C)CCC1 = > 890 µM
COc1cc(F)c(-c2ccc3c(c2)OC[C@H]3CC(=O)O)cc1C(=O)N[C@@H]1[C@H]2CC[C@H](C2)[C@@H]1C(=O)Nc1cccc(S(=O)(=O)C(F)(F)F)c1 = > 1000 µM

Now for a further compound.
Query string: Give its solubility value. Item: COc1cc(F)c(-c2ccc(C(=O)O)cc2)cc1C(=O)N[C@H]1[C@@H](C(=O)Nc2cc(F)cc(C(F)(F)F)c2)[C@@H]2C=C[C@H]1C2 (racemic)
Result string: > 1000 µM
